- protocol: yeast display, Sf9 membrane polyspecificity reagent, FACS + sequencing; frameworks hold sequencing errors

{"polymerSequence": "QVQLVESGGGLVQAGGSLRLSCAASGSTLGYYGMGWYRQAPGKERELVAAISGRGTSTYYADSVKGRCTISRDNAKNTVYLQMNSLKPEDTAVYYCAAQLFRELYWGQGTQVTVSS", "polyreactivity (PSR sort gate)": "high polyreactivity"}
{"polymerSequence": "QVQLVESGGGLVQAGGSLRLSCAASGNTFSVYAMGWYRQAPGKERELVAGITTSGGSTYYADSVKGRFTISRDNAKNTVYLQMNSLKPEDTAVYYCATDISTSYYYQYSSFYQYDSWGQGTQVTVSS", "polyreactivity (PSR sort gate)": "low polyreactivity"}
{"polymerSequence": "QVQLVESGGGLVQAGGSLRLSCAASGSTFQYNAMGGYRQAPGKERELVASISWSGGSTYYADSVKGRFTISRDNAKNTVYLQMNSLKPEVTAVYYCAADWSDQRDYWGQGTQVTVSS", "polyreactivity (PSR sort gate)": "low polyreactivity"}
{"polymerSequence": "QVQLVESGGGLVQAGGSLRLSCAASGRIFPDYAMGWYRQAPGKERELVAAISSSGGRTYYADSVKGRFTISRDNAKNTVYLQMNSLKPEDTAVYYCAARGSYTSIFDYWGQGTQVTVSS", "polyreactivity (PSR sort gate)": "high polyreactivity"}

---

- protocol: yeast display, Sf9 membrane polyspecificity reagent, FACS + sequencing; frameworks hold sequencing errors
reportedEndpoint: polyreactivity (PSR sort gate)

// below: answered sequences
{"polymerSequence": "QVQLVESAGGLGQAGGSLRLSSAASGITTRTYAMGWYRQARGNERELVAAISDSGDRTYYADSVKGRFTISRDNAKNTVYLQMNSLKPEETAVYYCAVHAPGPRCEYWGQGTQVTVSS", "reading": "low polyreactivity"}
{"polymerSequence": "QVQLVESGGGLVQAGGSLRLSCASSGYTIPLYAMVWYRQAPGKERELVADINIGGASTYYADSVKGRFTISRDNAKYTVYLQMNSLKPEDTAVYYCAKEYYDGYFTTFEYDYWGQGTQVTVSS", "reading": "low polyreactivity"}
{"polymerSequence": "QVQLVESGGGLVQAGGSLRLSCAASGGTFYQYAMGWYIQAPGKERELVAAISRSGGRTYYADSVKGRFTISRDNAKNTVYLQMNSLIPEDTAVYYCAADDVGPPDFYYWGQGTQVTVSS", "reading": "high polyreactivity"}
{"polymerSequence": "QVHLVESGGGLVQAGGSLRLSCAASGSTFVGNAMGWNRKAPGKERELVATISNSGGRTYYADSVKGPFTISRDNAKNTVYLEMNSLKPEDTAVYYCAADHPAFGPVYSFDYWGQGTQVTVSS", "reading": "low polyreactivity"}
{"polymerSequence": "QVQLVESGGCLVQAGGSLRLSCAASGNTFWVNSMGWYRQAPGKERELVAGITSSGDSTSYADSVKGRFTISRDNAKNTVYLQMNSLKPEDTAVYYCAADVGGFWYTEYYWGQGTQVTVSS", "reading": "high polyreactivity"}
{"polymerSequence": "QVQLVESGGGLVQAGGSLRLSCAASGSISPQNVMGWYRQAPGKERELVAAITWTGTSTYADSVKGSFTISRDNAKNTVYLQMNSLKPEDTAVYYCAARYYAPRWFRYDYWGQGTQVTVSS", "reading": "low polyreactivity"}

polyreactivity (PSR sort gate) measured on QVQLVESGGGLVQAGRSLRLICAASGRISVFYTMGWYRQAPGKERELVAVIRTSGGRTNYADSVKGRFTISRDNAKNTVYLQMNSLKPEDTAVYYCAARVVRYGFKYYYWGQGTQVTVSS = low polyreactivity

polyreactivity (PSR sort gate) measured on QVQLVESGGGLVQAGGSLRLSCAASGYTFKAYAMGWNIQAPGKERELVAAISWSGARTYYAYSVKGRFTISRDNAKNTVYLEMNRLKPEYTAVYYCAASNAVYAGRSYRDEYWGQGTQVTVSS = high polyreactivity

polyreactivity (PSR sort gate) measured on QVQLVESGGGLVQAGGSLRLSCAAAGSIVWFYAMGWYRQAPGKERELFASISSSGGSTYYADSVKGRFTISRDKAKNPGNIQMNTLKPEYTAVYYCAKRTNWGYWYNSWGQGTQVTVSS = high polyreactivity

polyreactivity (PSR sort gate) measured on QVQLVESGGGLVQAGGSLRLSCAASGFIFNRNAMGWYRQAPGKERELVAGINSGGTTKYADSVKGRFTISRDNAKNTVYLQMNSLKPEDTAVYYCNRDWWWDHGRWYRTSRYDYWGQGTQVTVSS = low polyreactivity

polyreactivity (PSR sort gate) measured on QVQLVESGGGLVQAGGSLRLSCAASGITFVRYALGWYRPAPGKERELVAAISRRGGSTYYADSVKGRFTISRDNAKNTVYLQMNSLKPEDTAVYYCNAQRPKATVWQLYDSWGQGTQVTVSS = high polyreactivity

polyreactivity (PSR sort gate) measured on QVQLVESGGGLVQAGGSLRLSCAASGRTFVSNTMGWYRQAPGKERELVAAINYSVASTNYADSVKGRFTISRDNAKNTVYLQMNSLKPEDTAVYYCNRASAGWGQGTQVTVSS = low polyreactivity

polyreactivity (PSR sort gate) measured on QVQLVESWGGLVQAGGSLRLSCAASGNTIIRYAMGWYSQAPGKERELVAAISRSGGRTYYADSVKGRFTISRDNAKNTVYLQMNSLKPEDTAVYYCAAKIYIPRGYDYWGQGTQVTVSS = high polyreactivity

polyreactivity (PSR sort gate) measured on QVQLVESGGGLVQAGGSLRLSCAASGSIFSRYAMGWYRQAPGKERELVAAITWSGGSTYYADSVKGRFTISRDNAKNTVYLQMNSLKPEDTAVYYCAAVGYAPYNHRYDYWGQGTQVTVSS = low polyreactivity

polyreactivity (PSR sort gate) measured on QVQLVESGGGLVQAGGSLRLSCAASGSTFGNYAMGWYRQAPGKERELVAVITSAGSTYYADSVKGRFTISRDNAKNTVYLQMNSLKPEDTAVYYCNTGKHVRYYYWGQGTQVTVSS = low polyreactivity
